- Subject Of Test: T1, human MSLN-R3 protein (human, UniProt Q13421 487-598)
- T1 construct: also called hMSLN-R3
- Assay Overview: ELISA on coated antigen, antibody 0.0001 nM
Measure: OD450 (OD450)
One number for each entry, in OD450.

Observe how each entry below is paired with its result.
Binder: F7.44.20 (scFv, not shown: small tags and cut ends, also called S009-F7.44.20 (parental variable regions, in the humanized-antibody ELISA)) scFv: EVQLQQSGPELVKPGASVKIPCKASGYTFTDYNMDWVKQSHGKSLEWIGDINPSTGGTIYNQKFNGKATLTEDKSASTVYMEFRSLTSDDTAVYYCARRRIGTGYFDVWGTGTTVTVSSGGGGSGGGGSGGGGSQIVLTQSPALMSASPGEKVTLTCSASSSVISSYLSWYQQKPGSSPKLLIYRTSNLASGVPARFSGSGSGTSYSLTISSMEAEDAASYFCHQWSSFPYTFGGGTKLEIK
Recorded Number: 0.04
--
Binder: F7.44.20-H4 (scFv, not shown: small tags and cut ends, also called S009-F7.44.20 humanized antibody VH1 + VL4) scFv: EVQLVQSGAEVKKPGASVKVSCKASGYTFTDYNMDWVRQAPGQGLEWMGDINPSTGGTIYNQKFNGRVTMTEDKSTSTVYMELSSLRSEDTAVYYCARRRIGTGYFDVWGQGTTVTVSSGGGGSGGGGSGGGGSEIVLTQSPATLSLSPGERATLSCSASSSVISSYLSWYQQKPGSSPRLLIYRTSNLASGIPARFSGSGSGTDYTLTISSLEPEDFAVYYCHQWSSFPYTFGGGTKVEIK
Recorded Number: 0.05

Please find the next binder below.
Record summary for F7.44.20-H13 (scFv, not shown: small tags and cut ends, also called S009-F7.44.20 humanized antibody VH2a + VL1) scFv: EVQLVQSGAEVKKPGASVKVSCKASGYTFTDYNMDWVRQAPGQGLEWMGDINPSTGGTIYNQKFSGRVTMTEDKSASTVYMELSSLRSEDTAVYYCARRRIGTGYFDVWGQGTTVTVSSGGGGSGGGGSGGGGSEIVLTQSPDFQSVTPKEKVTITCSASSSVISSYLSWYQQKPDQSPKLLIYRTSNLASGVPSRFSGSGSGTDFTLTINSLEAEDAATYYCHQWSSFPYTFGGGTKVEIK : reported OD450 = 0.05
